Sourced from patent US20180265515A1

Hi there, I'd appreciate the recorded pKi for every entry that follows.
# assayed.target: isolated recombinant JAK1 kinase domain (Homo sapiens)
# Construct: The activity of the isolated recombinant JAK1 and JAK2 kinase domain was measured
# Sequence (P23458 875-1153 limits assumed): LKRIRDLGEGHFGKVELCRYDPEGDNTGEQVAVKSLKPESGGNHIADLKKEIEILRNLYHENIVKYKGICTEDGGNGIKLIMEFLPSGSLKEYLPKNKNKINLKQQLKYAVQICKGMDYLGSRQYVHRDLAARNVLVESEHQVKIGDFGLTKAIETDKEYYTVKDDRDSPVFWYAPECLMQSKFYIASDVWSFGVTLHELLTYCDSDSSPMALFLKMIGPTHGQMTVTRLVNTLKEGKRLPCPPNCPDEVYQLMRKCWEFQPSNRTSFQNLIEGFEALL
# experiment: JAK1 enzyme assay (Caliper LabChip, Ki)
# Format: biochemical
# recorded.conditions: recombinant JAK1 kinase domain, 25 μM ATP
As a rule, pKi stands for the negative log10 of the concentration, concentration in M.

Query: Can you look up pKi on isolated recombinant JAK1 kinase domain (Homo sapiens) for CC(C)Sc1ccc(OC(F)F)c(-c2nn(CC(=O)N3CCC(N4CCSCC4)CC3)cc2NC(=O)c2cnn3cccnc23)c1 ?
Reply: 9.42

Query: Entry to check: CSc1ccc(OC(F)F)c(-c2nn(CC(=O)N3CCC(N4CCn5nccc5C4)CC3)cc2NC(=O)c2cnn3cccnc23)c1
Reply: 9.41

Query: Also CSc1ccc(OC(F)F)c(-c2nn(CC(=O)N3CCN(C4CCN(CC(=O)N(C)C)CC4)CC3)cc2NC(=O)c2cnn3cccnc23)c1 ?
Reply: 9.29

Query: Follow-up entry: CCSc1ccc(OC(F)F)c(-c2nn(CC(=O)N3CCC(N4CCOCC4)CC3)cc2NC(=O)c2cnn3cccnc23)c1
Reply: 9.44

Query: And for COC(=O)N1CCN(CC2CCN(C(=O)Cn3cc(NC(=O)c4cnn5cccnc45)c(-c4cc(SC)ccc4OC(F)F)n3)CC2)CC1 ?
Reply: 9.52

Query: // query: CSc1ccc(OC(F)F)c(-c2nn(CC(=O)N3CCC(N(C)CC(C)(F)F)CC3)cc2NC(=O)c2cnn3cccnc23)c1
Reply: 9.66
